assay-overview: yeast display, Sf9 membrane polyspecificity reagent, FACS + sequencing; frameworks hold sequencing errors
parameter-measured: polyreactivity (PSR sort gate)

>  <seq-text>
QVQLVESGGGLVQAGGSLRLSCAASGSTFNQNAMGWYRQAPGKERELVARITSGGSTYYADSVKGRFTISRDNAKNTVYLQMNSLKPEDTAVYYCAARANPYVLKYYYWGQGTQVTVSS

>  <polyreactivity (PSR sort gate)>
high polyreactivity

$$$$
>  <seq-text>
QVQLVESGGVLVQAGGSLRLSCAASGRTFHDYAMGWYRQAPGKERELVASISSGGSTYYADSVKGRFTISRDNAKNTDYLQMNSLKPEDTAVYYCAAYYYYTLYYRYDYWGQGTQVNVSS

>  <polyreactivity (PSR sort gate)>
low polyreactivity

$$$$
>  <seq-text>
QVHLVETGGGLVQEGGSLRLSCAASGSIFYYNAMGWYRQATGKETELVAAITSSGGSTYADSVKGRFTISRDNAKNTVYLQMNSLKPEDTAVYYCATVAHGLWSGSGYIYAYDYWGQGTQVTVSS

>  <polyreactivity (PSR sort gate)>
low polyreactivity

$$$$
>  <seq-text>
QVQIVESGGGLVQAGGSLRLSCAASGFIFGQYAMGWYRQAPGKERELVAAISSVGTTNYADSVKGRFTISRDNAKNTVYLQMNSLKPEDTAVYYCNAPVFYYWDYSYFPYEVDYWGQGTQVTESS

>  <polyreactivity (PSR sort gate)>
low polyreactivity

$$$$
>  <seq-text>
QVQLVESGVGLVQAGGSLRLSCAASGYTFAYNAMGWYRPAPGKERELVAAITSRAGSTHYADSVKGRFTISRDNAKNTVYLQMNSLKPEDTAVYYCAAKRYNRLRSYRYSDREDYWGQGTQVTVSS

>  <polyreactivity (PSR sort gate)>
high polyreactivity

$$$$
>  <seq-text>
PVQLVESGGGLVQAGGSLSLTCAASGSIFPYYTMRWYRPAPGKERELVATITGNGGSTYADSGKGRFTISRDNAKNTVYLQMNSLKPEDTAVYYCAVYGDSYWGAYYYSDGYWGQGTQVTVSS

>  <polyreactivity (PSR sort gate)>
low polyreactivity

$$$$

The measured polyreactivity (PSR sort gate) associated with QVQLVESGGGLVQAGGSLRLSCAASGSTFGRYAMGWYRQAPGKERELVAAINSRGGRKYYADSVKGRFTISRDNAKNTVYLQMNSLIPEDTAVYYCAAPTGPNGYYSDRGDSWGQGTQLTVSS reads low polyreactivity

The measured polyreactivity (PSR sort gate) associated with QVQLVESGGGLVHAGGSLRLSCAASAFIFLFYTMGSYRQAPGKERELVAAITSVGNTNYADSVKGRFSISRDNAKNTVFLQINSLKPEDTAVYYCAADTTDPGGAYQLMDYWGQGTQVTLSS reads low polyreactivity

The measured polyreactivity (PSR sort gate) associated with QVQLVESGGGLVQAGGSLRLSCAASGSIFSRNDMGWYRLAPGKERELVAAITSDDTSTYYADSVNGRFTISRDNAKNTVYLQMNSLKPEDTAVYYCAADYGNPFDYWGQGTQVTVSS reads low polyreactivity

The measured polyreactivity (PSR sort gate) associated with QVQLVESGGGLVQAGGSLRLSCAASGFTFKGYAMGWYRQAPGKERELVAAITRGGSTYYADSVKGRFTISRDNAKNTVYLLMNSLKPEDTAVYYCAARGRGHGTTPNDYWGQGTQVTVSS reads high polyreactivity
